The reported measurements were obtained from patent US20180186897A1.

# measurement target: erythrocytes infected with P. falciparum field isolate 9605
# procedure details: flow cytometry, staining of IEs
reported property: % parasite recognition (%)
Kindly answer with a numeric value in %, unit omitted.

Memo: MGC32 (antibody) VH: EVQLVESGGGLVQPGGSLRLSCVASGFNFRKSWMGWVRQAPGKGLEWVANIREDGSESFYADSVKGRFTVSRDNAKKSLYLHINSLRAEDTAVYYCARDRFCNDDEIHRHGQEDLPRPSISAAEGTVIPLGSHVTFVCRGPVGVQTFRLEKDSRSIYNDTENVSQPSPSESEARFRIDSVSEGNAGLYRCVYYKAPKWSAQSDYLELLVKGQEVTWALFTSCGGDGEEPDYDMDVRGKGTTVTVSS VL: DILMTQSPDSLAVSLGERATINCKSSQSVLYRSKNKNYLAWFQQKPGQPPKVLIYSTSTRASGVPDRFTGSGSGTDFTLTISSLQAEDVAVYYCLQYYITPYTFGQGTKLEIK , reported % parasite recognition: 22.9
